Biological target: Escherichia coli DNA gyrase A/B tetramer (Escherichia coli, UniProt P0AES4+P0AES6)
Sequence (P0AES4 whole entry, one chain of several): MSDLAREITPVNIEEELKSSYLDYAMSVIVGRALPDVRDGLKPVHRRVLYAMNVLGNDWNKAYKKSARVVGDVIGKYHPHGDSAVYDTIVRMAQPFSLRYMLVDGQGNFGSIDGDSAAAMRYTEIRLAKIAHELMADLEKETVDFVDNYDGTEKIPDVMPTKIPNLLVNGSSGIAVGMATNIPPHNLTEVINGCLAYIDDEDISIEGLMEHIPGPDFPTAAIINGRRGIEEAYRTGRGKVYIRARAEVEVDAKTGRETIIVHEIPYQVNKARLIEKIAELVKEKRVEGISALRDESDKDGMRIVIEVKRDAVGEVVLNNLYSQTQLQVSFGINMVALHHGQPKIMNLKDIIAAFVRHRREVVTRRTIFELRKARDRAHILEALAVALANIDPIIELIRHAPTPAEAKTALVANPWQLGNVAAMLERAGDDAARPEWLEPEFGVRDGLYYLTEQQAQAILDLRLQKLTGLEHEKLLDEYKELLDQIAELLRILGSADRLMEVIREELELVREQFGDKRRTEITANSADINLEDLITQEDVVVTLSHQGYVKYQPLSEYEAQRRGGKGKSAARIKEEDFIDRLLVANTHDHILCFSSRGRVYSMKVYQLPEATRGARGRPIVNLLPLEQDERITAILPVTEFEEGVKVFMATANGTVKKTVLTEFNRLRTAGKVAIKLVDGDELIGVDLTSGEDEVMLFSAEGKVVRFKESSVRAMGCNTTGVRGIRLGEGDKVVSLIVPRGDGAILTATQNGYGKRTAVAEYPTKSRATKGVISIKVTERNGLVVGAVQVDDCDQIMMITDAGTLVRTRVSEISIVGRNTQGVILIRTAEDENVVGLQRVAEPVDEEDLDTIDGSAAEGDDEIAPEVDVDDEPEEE
Assay: DNA gyrase supercoiling activity fluorescence polarisation assay
Assay type: biochemical
Please go through the items and note down their pIC50.
// pIC50 here means minus log10 of the molar concentration (mol/L)

Measured pIC50 of C[C@@H]1CN2c3cnc(-c4ccccn4)cc3CC3(C(=O)NC(=O)NC3=O)[C@H]2[C@H](C)O1 (relative stereo) : 4.68

Measured pIC50 of C[C@@H]1CN2c3cnc(-c4cccs4)cc3CC3(C(=O)NC(=O)NC3=O)[C@H]2[C@H](C)O1 (relative stereo) : 4.48

====

Target: Escherichia coli DNA gyrase A/B tetramer (Escherichia coli, UniProt P0AES4+P0AES6)
Test: DNA gyrase supercoiling activity fluorescence polarisation assay
Format: biochemical
Details: E. coli DNA gyrase supercoiling; asterisk: no IC50 obtained at or below the indicated concentration; read-out: IC50
READOUT: pIC50
// pIC50 here means minus log10 of the molar concentration (mol/L)

Measured pIC50 of CC1CN2c3ncc(-c4nccs4)cc3CC3(C(=O)NC(=O)NC3=O)C2C(C)O1 (centres unmarked) : 5.05

Measured pIC50 of C[C@@H]1CN2c3ncc(-c4ccnnc4)cc3CC3(C(=O)NC(=O)NC3=O)[C@H]2[C@H](C)O1 (relative stereo) : 5.15

Measured pIC50 of CC1CN2c3ncc(-c4ccnn4C)cc3CC3(C(=O)NC(=O)NC3=O)C2C(C)O1 (centres unmarked) : 5.30

====

Please go through the items and note down their pIC50.
Target: Escherichia coli DNA gyrase A/B tetramer (Escherichia coli, UniProt P0AES4+P0AES6)
Assay: DNA gyrase supercoiling activity fluorescence polarisation assay
Format: biochemical
// pIC50 here means minus log10 of the molar concentration (mol/L)

Measured pIC50 of C[C@@H]1CN2c3c(nc(Br)c(F)c3Cl)CC3(C(=O)NC(=O)NC3=O)[C@H]2[C@H](C)O1 (relative stereo) [Example 114] : 5.70

Measured pIC50 of C[C@@H]1CN2c3cnc(-c4ccnnc4)cc3CC3(C(=O)NC(=O)NC3=O)[C@H]2[C@H](C)O1 (relative stereo) [Example 96] : 5.52

Measured pIC50 of C[C@@H]1CN2c3ccc(Br)nc3CC3(C(=O)NC(=O)NC3=O)[C@H]2[C@H](C)O1 (relative stereo) [Example 19] : 4.96

Measured pIC50 of Cc1nc(-c2cnc3c(c2)CC2(C(=O)NC(=O)NC2=O)[C@H]2[C@H](C)O[C@H](C)CN32)no1 (relative stereo) [Example 122] : 5.00

====

Target: Escherichia coli DNA gyrase A/B tetramer (Escherichia coli, UniProt P0AES4+P0AES6)
Test: DNA gyrase supercoiling activity fluorescence polarisation assay
Type: biochemical
Please go through the items and note down their pIC50.
// pIC50 here means minus log10 of the molar concentration (mol/L)

Measured pIC50 of C[C@@H]1CN2c3cnc(-c4ccn[nH]4)cc3CC3(C(=O)NC(=O)NC3=O)[C@H]2[C@H](C)O1 (relative stereo) : 4.72

Measured pIC50 of C[C@@H]1CN2c3nc(F)ccc3CC3(C(=O)NC(=O)NC3=O)[C@H]2[C@H](C)O1 (relative stereo) : 4.60

Measured pIC50 of C[C@@H]1CN2c3ncc(-c4nc5ccccc5[nH]4)cc3CC3(C(=O)NC(=O)NC3=O)[C@H]2[C@H](C)O1 (relative stereo) : 5.22

Measured pIC50 of C[C@@H]1CN2c3ccc(-c4nccs4)nc3CC3(C(=O)NC(=O)NC3=O)[C@H]2[C@H](C)O1 (relative stereo) : 5.10

Measured pIC50 of Cc1cscc1-c1cnc2c(c1)CC1(C(=O)NC(=O)NC1=O)[C@H]1[C@H](C)O[C@H](C)CN21 (racemic) : 4.82

Measured pIC50 of C[C@@H]1CN2c3ccc(-c4cccc5cccnc45)nc3CC3(C(=O)NC(=O)NC3=O)[C@H]2[C@H](C)O1 (relative stereo) : 5.10

Measured pIC50 of C[C@@H]1CN2c3ccc(-c4cccnc4)nc3CC3(C(=O)NC(=O)NC3=O)[C@H]2[C@H](C)O1 (relative stereo) : 5.40

Measured pIC50 of CC1C[C@@H](C)[C@H]2N(C1)c1ncccc1CC21C(=O)NC(=O)NC1=O (some centres unmarked) : 5.52

Measured pIC50 of "Cc1nnc(-c2cc3c(nc2F)N2C[C@@H](C)C[C@@H](C)[C@@H]2C2(C3)C(=O)NC(=O)NC2=O)s1" : 5.22

Measured pIC50 of C[C@@H]1CN2c3cnc(-c4cccc5cccnc45)cc3CC3(C(=O)NC(=O)NC3=O)[C@H]2[C@H](C)O1 (relative stereo) : 5.10

====

Molecular target: Escherichia coli DNA gyrase A/B tetramer (Escherichia coli, UniProt P0AES4+P0AES6)
Assay: DNA gyrase supercoiling activity fluorescence polarisation assay
Assay type: biochemical
Please go through the items and note down their pIC50.
// pIC50 here means minus log10 of the molar concentration (mol/L)

Measured pIC50 of Cc1nc(C)c(-c2ccc3c(n2)CC2(C(=O)NC(=O)NC2=O)[C@H]2[C@H](C)O[C@H](C)CN32)s1 (relative stereo) [Example 109] : 4.85

Measured pIC50 of C[C@@H]1CN2c3nc(F)c(C#Cc4ccccn4)cc3CC3(C(=O)NC(=O)NC3=O)[C@H]2[C@H](C)O1 (relative stereo) [Example 21] : 5.00

Measured pIC50 of C[C@@H]1CN2c3nc(F)c(C#Cc4cnccn4)cc3CC3(C(=O)NC(=O)NC3=O)[C@H]2[C@H](C)O1 (racemic) [Example 22] : 5.40

====

Molecular target: Escherichia coli DNA gyrase A/B tetramer (Escherichia coli, UniProt P0AES4+P0AES6)
Assay: DNA gyrase supercoiling activity fluorescence polarisation assay
Format: biochemical
pIC50: −log10 of the molar value.
Mark label 0 for pIC50 values under 5, and label 1 for everything at or above.

Reported pIC50 reaches at least 5 for C[C@@H]1CN2c3cnc(-c4ccc(N5CCOCC5)nc4)cc3CC3(C(=O)NC(=O)NC3=O)[C@H]2[C@H](C)O1 (relative stereo) ?
label 0

Reported pIC50 reaches at least 5 for C[C@@H]1CN2c3ncc(-c4cn(C)cn4)cc3CC3(C(=O)NC(=O)NC3=O)[C@H]2[C@H](C)O1 (relative stereo) ?
label 0

Reported pIC50 reaches at least 5 for C[C@@H]1CN2c3ncc(C#N)cc3CC3(C(=O)NC(=O)NC3=O)[C@H]2[C@H](C)O1 (relative stereo) ?
label 0

Reported pIC50 reaches at least 5 for C[C@@H]1CN2c3ncc(-c4nncs4)cc3CC3(C(=O)NC(=O)NC3=O)[C@H]2[C@H](C)O1 (relative stereo) ?
label 1

Reported pIC50 reaches at least 5 for C[C@@H]1CN2c3ncc(-c4nccn4C)cc3CC3(C(=O)NC(=O)NC3=O)[C@H]2[C@H](C)O1 (racemic) ?
label 0

Reported pIC50 reaches at least 5 for C[C@@H]1CN2c3ccc(-c4ccncc4)nc3CC3(C(=O)NC(=O)NC3=O)[C@H]2[C@H](C)O1 (relative stereo) ?
label 1

Reported pIC50 reaches at least 5 for C[C@H]1CN2c3ncc(-c4nnnn4C)cc3CC3(C(=O)NC(=O)NC3=O)[C@@H]2[C@@H](C)O1 (relative stereo) ?
label 0

Reported pIC50 reaches at least 5 for C[C@@H]1CN2c3cnc(-c4ccncc4)cc3CC3(C(=O)NC(=O)NC3=O)[C@H]2[C@H](C)O1 (relative stereo) ?
label 0

Reported pIC50 reaches at least 5 for C[C@@H]1CN2c3ccc(-c4cnn(C)c4)nc3CC3(C(=O)NC(=O)NC3=O)[C@H]2[C@H](C)O1 (relative stereo) ?
label 0

Reported pIC50 reaches at least 5 for COc1nc2c(cc1-c1nnc(C)s1)CC1(C(=O)NC(=O)NC1=O)[C@H]1[C@H](C)O[C@H](C)CN21 (racemic) ?
label 0

Reported pIC50 reaches at least 5 for CC1C[C@@H](C)[C@H]2N(C1)c1ccc(Br)nc1CC21C(=O)NC(=O)NC1=O (stereo partly drawn) ?
label 0

====

Target: Escherichia coli DNA gyrase A/B tetramer (Escherichia coli, UniProt P0AES4+P0AES6)
Experiment: DNA gyrase supercoiling activity fluorescence polarisation assay
Assay type: biochemical
pIC50: −log10 of the molar value.
READOUT: pIC50

Measured pIC50 of C[C@@H]1CN2c3cnc(-c4cnn(C)c4)cc3CC3(C(=O)NC(=O)NC3=O)[C@H]2[C@H](C)O1 (relative stereo) : < 4.08

Measured pIC50 of Cc1nnc(-c2cnc3c(c2)CC2(C(=O)NC(=O)NC2=O)[C@H]2[C@H](C)O[C@H](C)CN32)s1 (relative stereo) : < 5.30

Measured pIC50 of C[C@@H]1CN2c3cncc(F)c3CC3(C(=O)NC(=O)NC3=O)[C@H]2[C@H](C)O1 (relative stereo) : < 4.08

====

Please go through the items and note down their IC50.
Biological target: Escherichia coli DNA gyrase A/B tetramer (Escherichia coli, UniProt P0AES4+P0AES6)
Assay: DNA gyrase supercoiling activity fluorescence polarisation assay
Type: biochemical
Description: The supercoiling reactions may be quenched by the addition of 10 microliters/well of 40 nM oligodeoxynucleotide probe in 3× triplex-forming buffer consisting of 150 mM NaCl, and 150 mM sodium acetate at pH 3.5. […] After 60 minutes, the fluorescence anisotropy of the BODIPY-FL may be measured in a Tecan Ultra plate reader, using 485 nm excitation and 535 nm emission filters equipped with polarizers. The IC50 may be determined by nonliner regression using two control reactions. […]
Value expressed in µM; do not type the unit.

Escherichia coli DNA gyrase A/B tetramer (Escherichia coli, UniProt P0AES4+P0AES6) assay, compound C[C@@H]1CN2c3ccc(-c4cc5ccccc5o4)nc3CC3(C(=O)NC(=O)NC3=O)[C@H]2[C@H](C)O1 (relative stereo) , recorded IC50 = 8

Escherichia coli DNA gyrase A/B tetramer (Escherichia coli, UniProt P0AES4+P0AES6) assay, compound C[C@H]1CN2c3ncc(-c4nnn(C)n4)cc3CC3(C(=O)NC(=O)NC3=O)[C@@H]2[C@@H](C)O1 (relative stereo) , recorded IC50 = 12

Escherichia coli DNA gyrase A/B tetramer (Escherichia coli, UniProt P0AES4+P0AES6) assay, compound C[C@@H]1CN2c3cnc(-c4nc5ccccc5s4)cc3CC3(C(=O)NC(=O)NC3=O)[C@H]2[C@H](C)O1 (relative stereo) , recorded IC50 = 11

Escherichia coli DNA gyrase A/B tetramer (Escherichia coli, UniProt P0AES4+P0AES6) assay, compound C[C@@H]1CN2c3ncc(-c4noc(-c5ccccc5)n4)cc3CC3(C(=O)NC(=O)NC3=O)[C@H]2[C@H](C)O1 (relative stereo) , recorded IC50 = 9
